# assayed target: Fructose-1,6-bisphosphatase 1 (Homo sapiens, UniProt P09467, C129S)
# run description: Covalent inhibition of FBPase C128S mutant (unknown origin) measured upto 45 mins by UV-visible spectrometry analysis

| query smiles | IC50 |
| --- | --- |
| c1csc(SSc2nccs2)n1 | > 500 µM |

---

# assayed target: Fructose-1,6-bisphosphatase 1 (Homo sapiens, UniProt P09467, C39S)
# run description: Covalent inhibition of FBPase C38S mutant (unknown origin) measured upto 45 mins by UV-visible spectrometry analysis
pIC50: −log10 of the molar value.
quantity: pIC50

| query smiles | assay result |
| --- | --- |
| c1csc(SSc2nccs2)n1 | 6.51 |

---

# assayed target: Fructose-1,6-bisphosphatase 1 (Homo sapiens, UniProt P09467, C93S)
# run description: Covalent inhibition of FBPase C92S mutant (unknown origin) measured upto 45 mins by UV-visible spectrometry analysis
pIC50: −log10 of the molar value.
quantity: pIC50

| query smiles | quantity | assay result |
| --- | --- | --- |
| c1csc(SSc2nccs2)n1 | pIC50 | 6.89 |

---

# assayed target: Fructose-1,6-bisphosphatase 1 (Homo sapiens, UniProt P09467)
# run description: Covalent inhibition of FBPase R243A mutant (unknown origin) measured upto 45 mins by UV-visible spectrometry analysis
pIC50: −log10 of the molar value.
quantity: pIC50

| query smiles | quantity | assay result |
| --- | --- | --- |
| c1csc(SSc2nccs2)n1 | pIC50 | 6.57 |

---

# assayed target: Fructose-1,6-bisphosphatase 1 (Homo sapiens, UniProt P09467, Y259A)
# run description: Covalent inhibition of FBPase Y258A mutant (unknown origin) measured upto 45 mins by UV-visible spectrometry analysis
pIC50: −log10 of the molar value.
quantity: pIC50

| query smiles | assay result |
| --- | --- |
| c1csc(SSc2nccs2)n1 | 5.51 |

---

# assayed target: Fructose-1,6-bisphosphatase 1 (Homo sapiens)
# Sequence (P09467 whole entry): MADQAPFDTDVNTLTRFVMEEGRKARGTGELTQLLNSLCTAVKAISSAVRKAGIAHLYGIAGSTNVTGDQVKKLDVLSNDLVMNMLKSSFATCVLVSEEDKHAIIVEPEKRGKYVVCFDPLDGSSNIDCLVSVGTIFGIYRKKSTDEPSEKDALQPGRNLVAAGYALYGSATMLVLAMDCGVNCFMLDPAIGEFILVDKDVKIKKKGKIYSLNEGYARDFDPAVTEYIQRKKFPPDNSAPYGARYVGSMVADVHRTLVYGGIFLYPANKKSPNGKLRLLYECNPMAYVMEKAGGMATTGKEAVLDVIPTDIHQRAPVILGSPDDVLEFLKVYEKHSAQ
# run description: Inhibition of wild-type full-length human liver FBPase expressed in Escherichia coli BL21 (DE3) using FBP as substrate by malachite green dye based assay
# Type: tissue-based
quantity: log10(IC50) (log10 of the value in nM)

| query smiles | log10(IC50) |
| --- | --- |
| Fc1ccc(SSc2nccs2)cc1 | 3.31 |
| C1Cc2nc(SSc3nc4c(s3)CCC4)sc2C1 | 2.67 |
| Nc1ccc(SSc2nccs2)cc1 | 3.88 |
| c1nnc(SSc2nncs2)s1 | 2.75 |
| Nc1nnc(SSc2nnc(N)s2)s1 | 2.69 |
| Clc1ccc(SSc2nncs2)cc1 | 3.11 |
| Clc1ccc(SSc2nccs2)c(Cl)c1 | 3.35 |
| Oc1ccc(SSc2nccs2)cc1 | 3.58 |
